SYSTEM UNDER TEST: full-length human His-tagged BTK (Homo sapiens)
Construct: 6 nM of full-length human His-tagged BTK (Life Technologies cat #PV3587); His; purchased Life Technologies PV3587
Sequence (Q06187 whole entry): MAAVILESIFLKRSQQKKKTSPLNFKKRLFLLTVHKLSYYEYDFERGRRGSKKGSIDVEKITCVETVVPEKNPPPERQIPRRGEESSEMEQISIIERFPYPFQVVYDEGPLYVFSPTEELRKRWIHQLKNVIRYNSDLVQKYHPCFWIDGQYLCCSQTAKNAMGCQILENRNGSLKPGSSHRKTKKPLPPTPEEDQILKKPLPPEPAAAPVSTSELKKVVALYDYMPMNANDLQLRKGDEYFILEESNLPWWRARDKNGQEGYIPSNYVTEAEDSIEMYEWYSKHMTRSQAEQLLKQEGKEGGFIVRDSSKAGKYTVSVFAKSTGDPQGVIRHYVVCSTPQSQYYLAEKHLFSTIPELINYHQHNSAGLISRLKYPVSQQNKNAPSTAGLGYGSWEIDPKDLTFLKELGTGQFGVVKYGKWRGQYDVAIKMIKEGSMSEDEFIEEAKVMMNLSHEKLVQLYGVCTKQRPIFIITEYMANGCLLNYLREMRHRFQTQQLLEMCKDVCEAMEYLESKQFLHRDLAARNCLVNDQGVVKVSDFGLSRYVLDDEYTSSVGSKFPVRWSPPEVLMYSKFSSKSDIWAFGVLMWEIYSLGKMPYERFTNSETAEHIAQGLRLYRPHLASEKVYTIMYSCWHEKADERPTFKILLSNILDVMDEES
METHOD: BTK HTRF assay (Cisbio KinEASE-TK)
Assay type: biochemical
SETTINGS: 6 nM BTK, 15 min preincubation at 28° C., 1 uM TK substrate-biotin, 30 uM ATP
Description: An HTRF assay (Cisbio KinEASE-TK cat #62TK0PEC) was performed to quantitate the ability of test compounds to inhibit BTK mediated phosphorylation of substrate. […] Phospohrylation was detected by adding 62.5 nM Streptavidin-XL665 and TK-Antibody Cryptate diluted 1:100 in HTRF detection buffer (Cisbio cat #62SDBRDF) and incubated for 60 minutes at RT. The plate was read on an Envision plate reader and the fluoresence is measured at 620 nm (cryptate) and 665 nm (XL665). […]
Recorded IC50 values for a group of compounds are listed next.

- COMPOUND: "CC#CC(=O)N1CCN(c2nc(-c3cccc(C(=O)Nc4ccccc4)c3)c(C(N)=O)s2)CC1 [Example 46]"
  VALUE PREFIX: ">"
  IC50 / nM: 1000
- COMPOUND: "C[C@H](Cl)C(=O)N1CC2(C1)CN(c1nc(-c3ccc(Oc4ccccc4)cc3)c(C(N)=O)s1)C2 [Example 20]"
  VALUE PREFIX: "="
  IC50 / nM: 350
- COMPOUND: "CC#CC(=O)N1CCN(c2nc(-c3ccc(Oc4ccccc4)cc3)c(C(N)=O)s2)CC1 [Example 7]"
  VALUE PREFIX: "="
  IC50 / nM: 0.67
- COMPOUND: "CC#CC(=O)N1C[C@@H]2C[C@H]1CN2c1nc(-c2ccc(Oc3ccccc3)cc2)c(C(N)=O)s1 [Example 16]"
  VALUE PREFIX: "="
  IC50 / nM: 1.2
- COMPOUND: "CC#CC(=O)N1CCN(c2nc(-c3ccc(Oc4ccccc4)cc3)c(C(N)=O)s2)[C@@H](C)C1 [Example 21]"
  VALUE PREFIX: "="
  IC50 / nM: 1.2
- COMPOUND: "C=CC(=O)N1CCN(c2nc(-c3ccc(Br)cc3)c(C(N)=O)s2)CC1 [Example 29]"
  VALUE PREFIX: "="
  IC50 / nM: 6.6
- COMPOUND: "C=CC(=O)N1CCCC12CCN(c1nc(-c3ccc(Oc4ccccc4)cc3)c(C(N)=O)s1)CC2 [Example 23]"
  VALUE PREFIX: "="
  IC50 / nM: 43
- COMPOUND: "NC(=O)c1sc(N2CCN(C(=O)C#CCO)CC2)nc1-c1ccc(Oc2ccccc2)cc1 [Example 39]"
  VALUE PREFIX: "="
  IC50 / nM: 0.69
- COMPOUND: "C=CC(=O)NC[C@H]1CCCN1c1nc(-c2ccc(Oc3ccccc3)cc2)c(C(N)=O)s1 [Example 40]"
  VALUE PREFIX: "="
  IC50 / nM: 120
- COMPOUND: "C/C=C/C(=O)N1CC2(C1)CN(c1nc(-c3ccc(Oc4ccccc4)cc3)c(C(N)=O)s1)C2 [Example 14]"
  VALUE PREFIX: ">"
  IC50 / nM: 1000

The reported numbers originate from patent US8895750B2.
